target_desc: UniProt P43116
Sequence (P43116 whole entry, looked up): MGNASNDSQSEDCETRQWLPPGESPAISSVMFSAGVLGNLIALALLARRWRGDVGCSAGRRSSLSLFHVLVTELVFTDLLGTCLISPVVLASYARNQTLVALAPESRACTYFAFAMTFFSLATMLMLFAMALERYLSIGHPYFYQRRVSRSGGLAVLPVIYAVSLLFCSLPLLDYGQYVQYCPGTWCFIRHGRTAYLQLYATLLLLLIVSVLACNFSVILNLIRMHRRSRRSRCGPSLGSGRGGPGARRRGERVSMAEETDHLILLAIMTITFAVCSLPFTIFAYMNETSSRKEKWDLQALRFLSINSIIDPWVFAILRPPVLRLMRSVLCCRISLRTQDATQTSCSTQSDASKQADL
assay_remarks: EP2 receptor modulators, dose response, cell-based, human EP2, PGE2 EC50 shift (AID 1421)
test_conditions: EP2-expressing cells, PGE2 EC50 shift by compound; measured here: PGE2 EC50 at 6.7 uM compound
Please respond with YES when measured PGE2 EC50 with compound is strictly beneath 1 nM, and with NO in all other cases.

*Q* Below 1 nM on PGE2 EC50 with compound? Entry `CCCCOc1ccc(-c2c(C(=O)Nc3ccccc3)c(C)[nH]c(=S)c2C#N)cc1`
*A* NO

*Q* # strict comparison: is reported PGE2 EC50 with compound < 1 nM? input = `CCSc1nc2ccccc2n1Cc1ccccc1F`
*A* YES

*Q* For this compound, is PGE2 EC50 with compound lower than 1 nM? `O=c1c2oc3ccccc3c2[nH]c(=S)n1-c1ccccc1`
*A* NO

*Q* Dear reviewer, please state whether `O=C(Cc1ccc(Cl)cc1)Nc1ccccc1Sc1ccccc1` has PGE2 EC50 with compound strictly beneath 1 nM.
*A* NO

*Q* Would you kindly verify if PGE2 EC50 with compound of CC1=C(C(=O)OCc2ccccc2)C(c2ccc(Cl)cc2Cl)NC(=O)N1CCCCCC(=O)O (stereo not given) is strictly less than 1 nM?
*A* NO

More entries:
*Q* PGE2 EC50 with compound under 1 nM? Item: CCC(Sc1nc(-c2ccccc2)c(C#N)c(=O)[nH]1)C(=O)Nc1cc(C)on1 (stereo not given)
*A* NO

*Q* PGE2 EC50 with compound strictly < 1 nM for this compound? `CCc1nc(N2CCCCC2)c2oc3ccccc3c2n1`
*A* YES

*Q* Does the reported PGE2 EC50 with compound of the following compound sit strictly below 1 nM? `Cn1c(=O)c2c(SC3CCCC3)nc(C3CC3)nc2n(C)c1=O`
*A* YES

*Q* PGE2 EC50 with compound strictly < 1 nM for this compound? `COc1ccccc1-c1nnc(SCC(=O)c2ccc(C3CCCCC3)cc2)n1Cc1ccco1`
*A* YES

*Q* Report whether reported PGE2 EC50 with compound is lower than 1 nM (strictly) for CCCC(=O)N1CCCC(c2nc(-c3cccs3)no2)C1 (stereo not given)
*A* NO

*Q* hey, is PGE2 EC50 with compound for `C=CCc1cc(C=O)cc(OCC)c1OCc1ccc(Cl)cc1` lower than 1 nM or not?
*A* NO

*Q* Is PGE2 EC50 with compound of `CCN(CC)S(=O)(=O)c1c(OC)cc(C)c(Cl)c1C` strictly below 1 nM?
*A* NO

*Q* Hi there! Is PGE2 EC50 with compound for `CC1=C(/C=C/C(C)=C/C=C/C(C)=C/C(=O)O)C(C)(C)CCC1` below 1 nM, do you know?
*A* NO

====

Give PGE2 EC50 with compound for every item shown.
target_desc: Prostaglandin E2 receptor EP2 subtype (Homo sapiens)
assay_remarks: EP2 receptor modulators, dose response, cell-based, human EP2, PGE2 EC50 shift (AID 1421)
test_conditions: EP2-expressing cells, PGE2 EC50 shift by compound; measured here: PGE2 EC50 at 6.7 uM compound
Answers are plain numbers, in nM.

Consider the following illustrative entries.
*Q* Quick one: PGE2 EC50 with compound for `COc1ccc(-n2c(CCc3ccccc3)nnc2SCC(=O)c2ccccc2)cc1` ?
*A* 1.57

*Q* What value of PGE2 EC50 with compound has been recorded for this entry: `COc1ccc(-c2cc(C(F)(F)F)nc(NCc3ccco3)n2)cc1OC`
*A* 0.53

State recorded PGE2 EC50 with compound for all listed molecules.
1. CCCC(=O)O[C@H]1C[C@@H](C)N(C(=O)c2ccccc2)c2ccc(C)cc21
2. COCCCN(C(=O)c1ccco1)c1nc(-c2cc(OC)ccc2OC)cs1
3. Cc1ccc(C(C)C)c(OCCn2c(=O)oc3ccccc32)c1

*A*
[0.88, 0.9, 2.6]

Quick one: give me PGE2 EC50 with compound for each item below, same order please.
1. Nc1ccccc1CCCC(=O)O
2. COc1ccc(S(=O)(=O)N(Cc2ccccc2)Cc2nc(-c3ccccc3)no2)cc1

*A*
0.98
1.16
